# target system: GST-RIPK1 (recombinant GST-RIPK1 kinase domain (residues 1-327)) (Homo sapiens)
# Construct: recombinant GST-RIPK1 kinase domain (residues 1-327) enzyme produced from baculovirus-transfected Sf21 cells
# Sequence (Q13546 1-327): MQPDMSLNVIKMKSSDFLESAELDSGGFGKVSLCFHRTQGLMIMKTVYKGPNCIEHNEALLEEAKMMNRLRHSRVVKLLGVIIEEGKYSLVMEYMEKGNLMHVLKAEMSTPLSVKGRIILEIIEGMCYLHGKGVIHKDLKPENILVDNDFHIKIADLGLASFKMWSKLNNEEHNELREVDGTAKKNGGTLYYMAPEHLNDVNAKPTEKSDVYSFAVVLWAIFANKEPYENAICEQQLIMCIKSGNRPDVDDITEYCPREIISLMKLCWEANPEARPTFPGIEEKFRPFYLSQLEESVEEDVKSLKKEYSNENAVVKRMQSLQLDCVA
# test details: RIPK1-ADP-Glo Enzymatic Assay
# test context: ten-point titration, top compound concentration of 100000 nM; 25 nM GST-RIPK1, 300 μM ATP, 3 μM dephosphorylated-MBP; 30 min pre-incubation, 150 min reaction
parameter measured: EC50 (nM)

[
  {
    "molecule": "O=C1N2C(CC[C@H]2c2cnccn2)OC12CC(OCc1ccc(Cn3ccnc3)cc1)C2 (stereo partly drawn) [Example 18.25]",
    "EC50, nM": 48
  },
  {
    "molecule": "O=C1N2[C@@H](CC[C@H]2c2cnccn2)O[C@]12C[C@@H](Oc1cccnc1)C2",
    "EC50, nM": 31
  },
  {
    "molecule": "NC(=O)c1ccnc(O[C@H]2C[C@@]3(C2)O[C@@H]2CC[C@@H](c4ccccc4)N2C3=O)c1",
    "EC50, nM": 20
  },
  {
    "molecule": "N#Cc1ccc(COC2CC3(C2)O[C@@H]2CC[C@@H](c4cnccn4)N2C3=O)cc1 (single isomer, unassigned) [Example 22.2]",
    "EC50, nM": 27
  },
  {
    "molecule": "Cn1nccc1-c1cc(OC2CC3(C2)O[C@@H]2CC[C@@H](c4cnccn4)N2C3=O)ncn1 (stereo partly drawn)",
    "EC50, nM": 13
  }
]

[1] CC(OC1CC2(C1)O[C@@H]1CC[C@@H](c3cc(F)cc(F)c3)N1C2=O)c1ncccc1F (single isomer, unassigned) [Example 12.3]
[2] N#Cc1cc(F)cc(OC2CC3(C2)O[C@@H]2CC[C@@H](c4cnccn4)N2C3=O)c1 (stereo partly drawn) [Example 19.16]
Recorded EC50 values differ for 1 and 2 ; which one is higher? Pick one; state its label.
1
(1: 239 nM, 2: 18 nM)

[I] O=C1N2C(CC[C@H]2c2cnccn2)OC12CC(OCc1ccccc1-n1cccn1)C2 (stereo partly drawn) [Example 18.102]
[II] COCCOc1ccc(COC2CC3(C2)OC2CC[C@@H](c4cnccn4)N2C3=O)cc1 (stereo partly drawn) [Example 18.50]
Recorded EC50 values differ for I and II ; which one is higher? Pick one; state its label.
I

----------
# target system: GST-RIPK1 (recombinant GST-RIPK1 kinase domain (residues 1-327)) (Homo sapiens)
# Construct: recombinant GST-RIPK1 kinase domain (residues 1-327) enzyme produced from baculovirus-transfected Sf21 cells
# test details: RIPK1-ADP-Glo Enzymatic Assay
# test context: ten-point titration, top compound concentration of 100000 nM; 25 nM GST-RIPK1, 300 μM ATP, 3 μM dephosphorylated-MBP; 30 min pre-incubation, 150 min reaction
pEC50: −log10 of the molar value.
parameter measured: pEC50

[
  {
    "compound": "O=C1N2[C@@H](CC[C@H]2c2cnccn2)O[C@]12C[C@@H](OCc1ccc3oncc3c1)C2 [Example 18.59]",
    "pEC50": 7.92
  }
]

[A] O=C(O[C@H]1C[C@@]2(C1)O[C@@H]1CC[C@@H](c3cc(F)cc(F)c3)N1C2=O)c1ccccc1 [Example 14]
[B] N#Cc1cc(OC2CC3(C2)O[C@@H]2CC[C@@H](c4cc(F)cc(F)c4)N2C3=O)ncc1F (single isomer, unassigned) [Example 17.1]
Kindly compare A with B and tell me which has the lower pEC50 figure. Pick one; state its label.
B
(B: 7.07, A: 7.89)

----------
# target system: GST-RIPK1 (recombinant GST-RIPK1 kinase domain (residues 1-327)) (Homo sapiens, UniProt Q13546)
# Construct: recombinant GST-RIPK1 kinase domain (residues 1-327) enzyme produced from baculovirus-transfected Sf21 cells
# test details: RIPK1-ADP-Glo Enzymatic Assay
# test context: ten-point titration, top compound concentration of 100000 nM; 25 nM GST-RIPK1, 300 μM ATP, 3 μM dephosphorylated-MBP; 30 min pre-incubation, 150 min reaction
pEC50: −log10 of the molar value.
parameter measured: pEC50

[
  {
    "compound": "O=C1N2C(CC[C@H]2c2cnccn2)OC12CC(OCc1ccc(C(F)F)cn1)C2 (stereo partly drawn) [Example 18.63]",
    "measured result": 6.45
  },
  {
    "compound": "O=C1N2C(CC[C@H]2c2cnccn2)OC12CC(OCc1ccc3nccn3c1)C2 (stereo partly drawn) [Example 18.69]",
    "measured result": 6.96
  },
  {
    "compound": "N#Cc1ccoc1COC1CC2(C1)OC1CC[C@@H](c3cnccn3)N1C2=O (stereo partly drawn) [Example 18.55]",
    "measured result": 6.90
  },
  {
    "compound": "O=C1N2[C@@H](CC[C@H]2c2cc(F)cc(F)c2)OC12CC(Oc1ccnc3c(F)cnn13)C2 (single isomer, unassigned) [Example 9.4]",
    "measured result": 6.98
  },
  {
    "compound": "O=C1N2[C@@H](CC[C@H]2c2cc(F)cc(F)c2)O[C@]12C[C@H](Oc1ncnn3c(Br)ccc13)C2",
    "measured result": 7.92
  }
]

[a] O=C1N2[C@@H](CC[C@H]2c2ccccc2)OC12CC(Oc1ccnc(C(F)(F)F)c1)C2 (stereo partly drawn)
[b] N#CC1(c2ccc(COC3CC4(C3)OC3CC[C@@H](c5cnccn5)N3C4=O)c(Cl)c2)CC1 (stereo partly drawn) [Example 18.29]
Recorded pEC50 values differ for a and b ; which one is higher? Pick one; state its label.
b

[A] O=C1N2[C@@H](CC[C@H]2c2cc(F)cc(F)c2)O[C@]12C[C@H](Oc1cc(-c3nn[nH]n3)ccn1)C2
[B] O=C1N2C(CC[C@H]2c2cnccn2)OC12CC(OCc1ccc3nc(C(F)(F)F)cn3c1)C2 (stereo partly drawn) [Example 18.54]
[C] O=C1N2C(CC[C@H]2c2cnccn2)OC12CC(OCc1cccc3nccn13)C2 (stereo partly drawn) [Example 18.36]
[D] O=C1N2C(CC[C@H]2c2cnccn2)OC12CC(OCc1ccc(Cn3ccnc3)cc1)C2 (stereo partly drawn) [Example 18.74]
[E] O=C1N2[C@@H](CC[C@H]2c2ccccc2)OC12CC(Oc1cccc3cnoc13)C2 (stereo partly drawn)
# ascending order, key=pEC50 List each label, following the requested order.
E, B, D, C, A

[a] O=C1N2C(CC[C@H]2c2cnccn2)OC12CC(OCc1cnc3c(c1)CCCC3)C2 (stereo partly drawn) [Example 18.42]
[b] O=C1N2C(CC[C@H]2c2cnccn2)OC12CC(OCc1cccc(N3CCCC3)n1)C2 (stereo partly drawn)
Recorded pEC50 values differ for a and b ; which one is higher? Pick one; state its label.
a
(a: 6.96, b: 6.65)

----------
# target system: GST-RIPK1 (recombinant GST-RIPK1 kinase domain (residues 1-327)) (Homo sapiens, UniProt Q13546)
# Construct: recombinant GST-RIPK1 kinase domain (residues 1-327) enzyme produced from baculovirus-transfected Sf21 cells
# Sequence (Q13546 1-327): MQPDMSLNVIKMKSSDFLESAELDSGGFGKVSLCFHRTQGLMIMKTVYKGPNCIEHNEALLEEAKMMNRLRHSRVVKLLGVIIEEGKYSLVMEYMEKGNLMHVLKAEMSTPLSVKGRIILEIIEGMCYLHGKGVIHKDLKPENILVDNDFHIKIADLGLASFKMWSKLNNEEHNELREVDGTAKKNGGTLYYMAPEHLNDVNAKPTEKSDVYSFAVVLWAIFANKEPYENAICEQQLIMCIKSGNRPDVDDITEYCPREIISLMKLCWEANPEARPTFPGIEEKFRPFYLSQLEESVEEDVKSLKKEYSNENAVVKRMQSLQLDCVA
# test details: RIPK1-ADP-Glo Enzymatic Assay
# test context: ten-point titration, top compound concentration of 100000 nM; 25 nM GST-RIPK1, 300 μM ATP, 3 μM dephosphorylated-MBP; 30 min pre-incubation, 150 min reaction
parameter measured: EC50 (nM)

Here are 5 molecules together with their reported answers.
[
  {
    "molecule": "O=C1N2[C@@H](CC[C@H]2c2ccc(F)cc2)OC12CC(OCc1ccncc1)C2 (stereo partly shown)",
    "display unit": "nM",
    "EC50": 104
  },
  {
    "molecule": "O=C1N2[C@@H](CC[C@H]2c2cnccn2)OC12CC(Oc1ccccc1)C2 (stereo partly shown)",
    "display unit": "nM",
    "EC50": 21
  },
  {
    "molecule": "N#CC1(c2ccc(COC3CC4(C3)OC3CC[C@@H](c5cnccn5)N3C4=O)c(Cl)c2)CC1 (stereo partly shown) [Example 18.79]",
    "display unit": "nM",
    "EC50": 20
  },
  {
    "molecule": "CC(OC1CC2(C1)O[C@@H]1CC[C@@H](c3cc(F)cc(F)c3)N1C2=O)c1ncccc1F (single isomer, unassigned) [Example 12.5]",
    "display unit": "nM",
    "EC50": 305
  },
  {
    "molecule": "CC(OC1CC2(C1)OC1CCC(c3cc(F)cc(F)c3)N1C2=O)c1ccccc1 (single isomer, unassigned) [Example 15.3]",
    "display unit": "nM",
    "EC50": 26
  }
]

[A] N#Cc1cccc(F)c1COC1CC2(C1)OC1CC[C@@H](c3cnccn3)N1C2=O (stereo partly shown) [Example 18.100]
[B] O=C1N2C(CC[C@H]2c2cnccn2)OC12CC(OCc1ccc(-c3ccon3)cc1)C2 (stereo partly shown) [Example 18.80]
Recorded EC50 values differ for A and B ; which one is higher? Pick one; state its label.
A
